molecular target: Vasopressin V1a receptor (Homo sapiens, UniProt P37288); test: Agonist activity at recombinant human vasopressin V1a receptor expressed in HEK293 cells by luciferase reporter gene assay; type: functional, cell-based; conditions: read-out: EC50
Sequence (P37288 whole entry): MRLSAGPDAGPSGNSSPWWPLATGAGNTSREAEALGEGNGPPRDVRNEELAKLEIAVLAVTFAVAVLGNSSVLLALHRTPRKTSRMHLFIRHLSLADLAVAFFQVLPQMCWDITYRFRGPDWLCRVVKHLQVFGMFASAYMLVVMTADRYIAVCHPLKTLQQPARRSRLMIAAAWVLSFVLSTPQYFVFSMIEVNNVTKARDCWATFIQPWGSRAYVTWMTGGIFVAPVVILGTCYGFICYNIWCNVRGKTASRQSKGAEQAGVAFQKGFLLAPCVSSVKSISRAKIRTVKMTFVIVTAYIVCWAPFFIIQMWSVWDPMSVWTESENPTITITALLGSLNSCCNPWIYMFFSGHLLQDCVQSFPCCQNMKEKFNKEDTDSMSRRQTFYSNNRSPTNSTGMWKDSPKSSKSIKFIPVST
pEC50: −log10 of the molar value. Bridge positions count the residues as written; N and C are the ends. Square brackets hold non-standard residues; d marks the D form. Peptide text beside a SMILES is read from it. * marks the point of attachment. Ala(2-furyl) = N[C@@H](Cc1ccco1)C(=O)O; Ala(cPent) = N[C@@H](CC1CCCC1)C(=O)O; 2Thi = N[C@@H](Cc1cccs1)C(=O)O; Orn = NCCC[C@H](N)C(=O)O; Dab = NCC[C@H](N)C(=O)O; N(Me)OMe = CON(C)*; NHCH2CH2OH = OCCN*; X2 = CC(O)CN*
reported-endpoint: pEC50

Before answering, review these 5 worked examples.
molecule	target-or-test-system	pEC50
CC[C@H](C)[C@@H]1NC(=O)[C@H](Cc2ccco2)NC(=O)[C@@H](N)CSSC[C@@H](C(=O)N2CCC[C@H]2C(=O)N[C@@H](CCN)C(=O)NCC(N)=O)NC(=O)[C@H](CC(N)=O)NC(=O)[C@H](CC(N)=O)NC1=O (H-C[Ala(2-furyl)]INNCP[Dab]G-NH2; disulfide 1-6)	Vasopressin V1a receptor (Homo sapiens, UniProt P37288)	7.85
CC[C@H](C)[C@@H]1NC(=O)[C@H](Cc2ccccc2)NC(=O)[C@@H](N)CSSC[C@@H](C(=O)N2CCC[C@H]2C(=O)N[C@@H](CCCN)C(=O)NCC(N)=O)NC(=O)[C@H](CC(N)=O)NC(=O)[C@H](CCC(=O)N(C)OC)NC1=O (H-CFIE(N(Me)OMe)NCP[Orn]G-NH2; disulfide 1-6)	Vasopressin V1a receptor (Homo sapiens, UniProt P37288)	7.16
CC[C@H](C)[C@@H]1NC(=O)[C@H](CC2CCCC2)NC(=O)[C@@H](N)CSSC[C@@H](C(=O)N2CCC[C@H]2C(=O)N[C@@H](CCN)C(=O)NCC(N)=O)NC(=O)[C@H](CC(N)=O)NC(=O)[C@H](CCC(N)=O)NC1=O (H-C[Ala(cPent)]IQNCP[Dab]G-NH2; disulfide 1-6)	Vasopressin V1a receptor (Homo sapiens, UniProt P37288)	9.10
CC[C@H](C)[C@@H]1NC(=O)[C@H](Cc2ccccc2)NC(=O)[C@@H](N)CSSC[C@@H](C(=O)N2CCC[C@H]2C(=O)N[C@@H](CCCN)C(=O)NCC(N)=O)NC(=O)[C@H](CC(N)=O)NC(=O)[C@H](CC(=O)NCCO)NC1=O (H-CFID(NHCH2CH2OH)NCP[Orn]G-NH2; disulfide 1-6)	Vasopressin V1a receptor (Homo sapiens, UniProt P37288)	8.10
CC[C@H](C)[C@@H]1NC(=O)[C@H](Cc2ccccc2)NC(=O)[C@@H](N)CSSC[C@@H](C(=O)N2CCC[C@H]2C(=O)N[C@@H](CCCN)C(=O)NCC(N)=O)NC(=O)[C@H](CC(N)=O)NC(=O)[C@H](CC(=O)NCC(C)O)NC1=O (some centres not stated) (H-CFID(X2)NCP[Orn]G-NH2; disulfide 1-6)	Vasopressin V1a receptor (Homo sapiens, UniProt P37288)	8.28

(I) CC[C@H](C)[C@@H]1NC(=O)[C@H](Cc2cccs2)NC(=O)[C@@H](N)CSSC[C@@H](C(=O)N2CCC[C@H]2C(=O)N[C@@H](CCN)C(=O)NCC(N)=O)NC(=O)[C@H](CC(N)=O)NC(=O)[C@H](CCC(N)=O)NC1=O (H-C[2Thi]IQNCP[Dab]G-NH2; disulfide 1-6)
(II) CC[C@H](C)[C@@H]1NC(=O)[C@H](Cc2ccccc2)NC(=O)[C@@H](N)CSSC[C@@H](C(=O)N2CCC[C@H]2C(=O)N[C@@H](CCN)C(=O)NCC(N)=O)NC(=O)[C@H](CC(N)=O)NC(=O)[C@H](CC(N)=O)NC1=O (H-CFINNCP[Dab]G-NH2; disulfide 1-6)
Q. Of the two listed items, which has the higher pEC50? First: I Second: II Return value: the label identifying the chosen record.
A. I
